Tested on: K562
assay.info: NCI tumour cell line growth inhibition, 48 h
Active and inactive are the calls of the source. No stated cut-off is given here; in the data, active = GI50 up to about 1.1 µM and inactive = higher.
GI50 values by entry
value.kind: GI50

{"molecule": "Cc1ccc(C)c(NC(=O)CC/C(=N\\NC(=O)C(N)=O)C(C)C(=O)c2ccc(O)cc2)c1 (stereo not given)", "result": "> 100 µM (inactive)"}
{"molecule": "O=C(Cn1cc(Br)c(=O)[nH]c1=O)c1ccc(-c2ccccc2)cc1", "result": "> 11.2 µM (inactive)"}
{"molecule": "CC12CC(c3ccccc3O1)C(C(=O)Nc1nccs1)C(=O)N2 (stereo not given)", "result": "> 100 µM (inactive)"}
{"molecule": "CC(=N\\N)/C(C)=N/N=C(C)/C(C)=N/N", "result": "> 10 µM (inactive)"}
{"molecule": "CC(=O)OCC1OC(n2c3c(cc(C#N)c2=S)CCCCCC3)C(OC(C)=O)C(OC(C)=O)C1OC(C)=O (stereo not given)", "result": "32.1 µM (inactive)"}

###

Tested on: SN12C
assay.info: NCI tumour cell line growth inhibition, 48 h
The source made the active and inactive calls. Cut-off read from the data, not from the text of the source: active = GI50 up to about 1.1 µM and inactive = higher.
Outcome codes: active, inactive

{"molecule": "COc1ccc2c(c1)CCC(CN1CCN(CCOC(c3ccc(F)cc3)c3ccc(F)cc3)CC1)=C2", "tested.system": "SN12C", "class.name": "inactive"}
{"molecule": "CC(=O)c1sc2c(c1OC(=O)c1ccc(Cl)cc1Cl)c(=O)n(-c1ccccc1)c(=S)n2-c1ccccc1", "tested.system": "SN12C", "class.name": "active"}
{"molecule": "COC(=O)C1[C@@H](C(=O)OC)C(=O)O[C@H]1c1cc(OC)c(OC)c(OC)c1 (some centres undefined)", "tested.system": "SN12C", "class.name": "inactive"}
{"molecule": "C=C[C@H]1CN2CCc3c([nH]c4c([C@@H]5CCCN5C)c(O)ccc34)[C@@H]2C[C@@H]1C[C@H]1c2[nH]c3ccccc3c2CCN1C", "tested.system": "SN12C", "class.name": "inactive"}
{"molecule": "N#CC1Nc2ccccc2[C@@H](O)C1O (some centres undefined)", "tested.system": "SN12C", "class.name": "inactive"}
{"molecule": "CC1C=CC(=O)C(n2cc(F)c(=O)[nH]c2=O)O1 (centres undefined)", "tested.system": "SN12C", "class.name": "inactive"}
{"molecule": "COC(=O)c1c[nH]c2c1-c1cc(C(=O)OCc3ccccc3)n(S(=O)(=O)c3ccc(C)cc3)c1C(=O)C2=O", "tested.system": "SN12C", "class.name": "active"}
{"molecule": "COC1=C(NC(C)=O)C(=O)c2nc3n(c2C1=O)CCC3", "tested.system": "SN12C", "class.name": "inactive"}
{"molecule": "COc1ccn(CC(=O)c2cc3ccccc3[nH]2)c(=O)n1", "tested.system": "SN12C", "class.name": "inactive"}

###

Tested on: OVCAR-3
assay.info: NCI tumour cell line growth inhibition, 48 h
The source made the active and inactive calls. Cut-off read from the data, not from the text of the source: active = GI50 up to about 1.1 µM and inactive = higher.
GI50 values by entry
value.kind: GI50

{"compound": "COCOCC[C@@H]1CC=CC(NC(=O)OCc2ccccc2)C1/C=C/C(=O)CCC1OCCO1 (stereo not given in full)", "tested.system": "OVCAR-3", "result": "27.2 µM (inactive)"}
{"compound": "C(=N\\c1ccc2c(c1)Cc1ccccc1-2)/c1ccccn1", "tested.system": "OVCAR-3", "result": "61.7 µM (inactive)"}
{"compound": "O=[N+]([O-])c1ccc(Nc2nc3ccccc3s2)cc1", "tested.system": "OVCAR-3", "result": "18.7 µM (inactive)"}
{"compound": "CC(=O)NC1C(OCc2ccccc2)OC(CO)C(O)C1OC(C)C(=O)NC(C)C(=O)N[C@@H](CCC(=O)OCCCNC1c2ccccc2Nc2cccc([N+](=O)[O-])c21)C(N)=O (stereo not given in full)", "tested.system": "OVCAR-3", "result": "< 0.01 µM (active)"}
{"compound": "N#CNC1=NC(CCCC(=O)Nc2cccc([N+](=O)[O-])c2)=C(c2nc3ccccc3[nH]2)C(N)N1 (stereo not given)", "tested.system": "OVCAR-3", "result": "> 100 µM (inactive)"}
